Some compounds, each annotated with its measured Potency.
Test: qHTS Assay for Identification of Small Molecule Agonists for Hypoxia Response Element Signaling Pathway (AID 914); further: potency means the concentration at half of the fitted maximal effect
Conditions: ME-180 HRE-bla reporter, beta-lactamase ratio, CoCl2, 17 h
Description: NIH Molecular Libraries Screening Centers Network [MLSCN] NIH Chemical Genomics Center [NCGC] Hypoxia-inducible factor-1 (HIF-1) is the major hypoxia-regulated transcription factor that controls cellular responses to low oxygen concentration. HIF-1 is composed of two subunits: hypoxia responsive HIF-1 alpha and constitutively expressed HIF-1 beta, which is also known as aryl hydrocarbon receptor nuclear translocator. […]
Records with an inconclusive call do not appear. Active and inactive are the calls of the source. The call rests on the fitted dose curve; in most records, active means well fitted activation curve with a large enough effect in the signal ratio, with a control signal flat (not every such curve was filed as active); inconclusive means small, poorly fitted or top-dose-only effect, or effect the other way, or a change in a side signal; inactive means flat fitted curve, though single readings scatter; the % refers to the signal ratio.

Worked examples, 6 compounds total:
>>> print(df.to_string())
                                smiles_data       measurement
0  O=c1c(-c2ccccc2)nc2cnc(N3CCOCC3)nc2n1-c1ccccc1  3.16 µM (active)
1  CN1CCN(c2ncc3nc(-c4cccs4)c(=O)n(C[C@H]4CCCO4)c3n2)CC1  3.16 µM (active)
2  N#CCCn1c(=O)c(-c2cccs2)nc2cnc(Oc3cccc(Cl)c3)nc21  1.58 µM (active)
3  CN1CCN(c2ncc3nc(-c4ccc(Cl)cc4)c(=O)n(C4CC4)c3n2)CC1  3.16 µM (active)
4  O=c1c(-c2cc(F)cc(F)c2)nc2cnc(N3CCNCC3)nc2n1CCc1ccccc1  3.16 µM (active)
5   CCNc1ncc2nc(-c3ccccc3)c(=O)n(C3CC3)c2n1  2.51 µM (active)

// next entry
Data request: Please report the recorded Potency for `COc1cccc(Nc2ncc3nc(-c4ccccc4)c(=O)n(C4CC4)c3n2)c1` .
Data returned: 3.16 µM (active)

---

assay: NFAT Signaling Pathway (AID 444); details: Jurkat NFAT-bla M1, carbachol, beta-lactamase ratio, 5 h; at 7.69 µM (top of the series) unless noted;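 further: carbachol stimulus at about its EC50 of 1 µM final; on the % scale 0 is the no-effect control and ±100 the full control effect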
Records with an inconclusive call do not appear. Calls of active or inactive are those of the source. Calls follow the shape of the dose curve; as a rule, active = well fitted curve in either direction with a large enough effect (not every such curve was filed as active); inconclusive = small, poorly fitted or top-dose-only effect, or another doubt; inactive = flat fitted curve, though single readings scatter.
Hello, when you answer, please use one of the following outcomes: active, inactive

Example entries and their recorded answers appear below.
>>> print(df.to_string())
                                smiles_data  qualitative_label
0     O=C(O)CCC(=O)c1ccc2ccc3cccc4ccc1c2c34           inactive
1            COc1ccc(/C=C(\C#N)C(N)=O)cc1OC           inactive
2  C[C@H]1C[C@H]2[C@H]3CCC4=CC(=O)C=C[C@@]4(C)[C@]3(F)[C@H](O)C[C@]2(C)[C@@]1(O)C(=O)COP(=O)(O)O           inactive

Please find the next molecule below.
Data request: Write down the call the test reported for this molecule. Item: `O=C(O)C[C@H](Sc1ccccc1)c1ccccc1`
Data returned: inactive

---

test system: CP211; assay: qHTS profiling for inhibitors of Plasmodium falciparum proliferation (AID 504749); further: nearly all actives have a fitted effect of over 60% in size; settings: P. falciparum in erythrocytes, SYBR Green DNA, 72 h; series mostly up to 28.7 µM
Inconclusive results are not listed. Active and inactive are the calls of the source. Calls come from the whole dose curve; as a rule, active = well fitted inhibition curve with a large enough effect; inconclusive = small, poorly fitted or top-dose-only effect; inactive = flat fitted curve, though single readings scatter.
Hello, when you answer, please use one of the following outcomes: active, inactive

Example entries and their recorded answers appear below.
>>> df
                                smiles_data  qualitative_label
0  C(=C/c1ccccc1)/CN1CCN(C(c2ccccc2)c2ccccc2)CC1           inactive
1  COc1cccc2c1C(=O)c1c(O)c3c(c(O)c1C2=O)C[C@](O)(C(=O)CO)C[C@@H]3O[C@H]1C[C@H](N)[C@@H](O)[C@H](C)O1           inactive
2  C[C@]12CC[C@H]3c4ccc(O)cc4CC[C@@H]3[C@H]1CC[C@@H]2OP(=O)(O)O           inactive
3  O=C(O)[C@@H](O)[C@@H](O)[C@H](O)[C@H](O)CO           inactive
4             O=C(O)[C@@H](S)[C@H](S)C(=O)O             active
5  C[C@H](CCC(=O)O)[C@H]1CC[C@@H]2[C@H]3[C@@H](C[C@@H](O)[C@]21C)[C@]1(C)CC[C@H](O)C[C@@H]1C[C@@H]3O           inactive
6                  N[C@@H](Cc1ccccc1)C(=O)O           inactive
7  CO/N=C(\C(=O)N[C@@H]1C(=O)N2C(C(=O)[O-])=C(C[N+]3(C)CCCC3)CS[C@@H]12)c1csc(N)n1           inactive

Data request: Write down the call the test reported for this compound. Item: `Cc1onc(-c2c(F)cccc2Cl)c1C(=O)N[C@@H]1C(=O)N2[C@H]1SC(C)(C)[C@H]2C(=O)O`
Data returned: inactive

Data request: Write down the call the test reported for this compound. Item: `OC[C@H](S)CS`
Data returned: inactive

---

test: qHTS assay for small molecule activators of the p53 signaling pathway (AID 651743); details: HCT-116 p53RE-bla, beta-lactamase FRET ratio, 16 h; stronger effect = higher value; further: % of control where 0% means no effect
Records with an inconclusive call do not appear.
Some molecules, each annotated with its measured activation.
Field: numeric (%). Do not append units.

Worked examples, 5 molecules total:
In [3]: df
Out[3]:
                              molecule  reading_unit  measurement
0  CN(C)c1ccc(C(=N)c2ccc(N(C)C)cc2)cc1             %         11.1
1                       Cc1c(N)cccc1Cl             %       -0.236
2       CCCCCCc1ccc(-c2ccc(C#N)cc2)cc1             %         1.83
3   CCCCCCCC/C=C\CCCCCCCC(=O)N(CCO)CCO             %        -2.93
4                       C=Cc1cccc(C)c1             %        -1.54

Data request: Please report the recorded activation for `c1c[nH]cn1` .
Data returned: -1.43

Data request: Please report the recorded activation for `N=C1C=CC(=C(c2ccc(N)cc2)c2ccc(N)cc2)C=C1` .
Data returned: 11.1

Data request: Please report the recorded activation for `OCC(CBr)(CBr)CBr` .
Data returned: 0.524

Data request: Please report the recorded activation for `Oc1ccc(O)c2c(O)cccc12` .
Data returned: -2.36

Data request: Please report the recorded activation for `Nc1ccc(N)c(Cl)c1` .
Data returned: 1.03

Data request: Please report the recorded activation for `c1ccc(SCCSc2ccccc2)cc1` .
Data returned: -1.09

Data request: Please report the recorded activation for `CC(C)COC(=O)COc1cc(Cl)c(Cl)cc1Cl` .
Data returned: -1.51

Data request: Please report the recorded activation for `Brc1ccc(-c2ccccc2)cc1` .
Data returned: -2.65

Data request: Please report the recorded activation for CC(C)OCC1CO1 (stereo not given) .
Data returned: 0.641

---

assay: AP1 Signaling Pathway (AID 357); conditions: ME-180 (cervical carcinoma) AP-1-bla reporter, EGF-induced, beta-lactamase ratio, 5 h; at 7.69 µM (top of the series) unless noted;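 further: ME-180 reporter cells stimulated with EGF at its EC50 level; on the % scale 0 is the no-effect control and ±100 the full control effect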
Results filed as inconclusive are left out. Calls of active or inactive are those of the source. Calls come from the whole dose curve; as a rule, active = well fitted curve in either direction with a large enough effect (not every such curve was filed as active); inconclusive = small, poorly fitted or top-dose-only effect, or another doubt; inactive = flat fitted curve, though single readings scatter.
result.type: activity change, negative = inhibition

Worked examples, 8 compounds total:
>>> print(df.to_string())
                                smiles_data                  measurement
0             Nc1nc(N)c(CCCCc2ccccc2)c(N)n1             17.9% (inactive)
1              N#CC(C#N)=NNc1ccc2cn[nH]c2c1             1.21% (inactive)
2              N=C(CC(=O)Nc1ccccn1)c1ccccc1             3.96% (inactive)
3  CCCCCCCCCC[Si](C)(C)CCC(=O)N[C@@H](Cc1ccc(C)cc1)c1ccccc1  20.2% [at 38 µM] (inactive)
4    Cc1cc2nc3[nH]c4c(Cl)cc(Cl)cc4c3nc2cc1C              -14% (inactive)
5            CSc1ccc(NC(=O)Nc2cc(C)ccn2)cc1             0.23% (inactive)
6  O=C(O)CN(CCN(CC(=O)O)CC(=O)O)CC(=O)O.[Mn]           -0.063% (inactive)
7  CC(=O)Nc1ccc2c(c1)/C(=C/c1ccc([N+](C)(C)C)cc1)c1ccccc1-2            -9.13% (inactive)

Data request: Please report the recorded activity change, negative = inhibition for `CSc1ncnc2c1ncn2CC(=O)[C@H]1CC[C@H]2[C@H]3CCC4=CC(=O)CC[C@@]4(C)[C@@H]3CC[C@@]12C` .
Data returned: -21.5% (inactive)

Data request: Please report the recorded activity change, negative = inhibition for `CCN(Cc1cc(Cl)cc(C)c1O)Cc1c(O)ccc2ccccc12` .
Data returned: -8.15% (inactive)

Data request: Please report the recorded activity change, negative = inhibition for `CC(C)(C)c1ccc(CN2CCN([C@H](c3ccccc3)c3ccc(Cl)cc3)CC2)cc1` .
Data returned: 2.89% (inactive)

Data request: Please report the recorded activity change, negative = inhibition for `Clc1ccccc1C(Nc1cnccn1)Nc1cnccn1` .
Data returned: 8.81% (inactive)
